# SYSTEM: T1, CRBN, Q96SW2;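 also: pooled lentiviral library of zinc finger degron-EGFP fusions in mCherry-positive Jurkat cells, FACS-sorted after compound exposure, with degron abundance counted by next-generation sequencing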
# T1 chain: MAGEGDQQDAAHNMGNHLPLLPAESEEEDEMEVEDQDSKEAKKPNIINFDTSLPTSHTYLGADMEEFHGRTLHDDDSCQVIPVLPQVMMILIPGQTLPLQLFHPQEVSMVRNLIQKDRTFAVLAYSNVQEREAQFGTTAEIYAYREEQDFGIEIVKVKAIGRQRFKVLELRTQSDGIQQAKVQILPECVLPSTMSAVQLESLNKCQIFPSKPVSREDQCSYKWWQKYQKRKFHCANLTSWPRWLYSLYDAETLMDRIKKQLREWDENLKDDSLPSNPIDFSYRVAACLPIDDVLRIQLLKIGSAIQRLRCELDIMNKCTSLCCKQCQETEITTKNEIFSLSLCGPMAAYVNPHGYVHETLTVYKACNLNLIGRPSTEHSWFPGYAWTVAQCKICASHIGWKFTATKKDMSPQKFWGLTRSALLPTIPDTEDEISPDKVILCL
# ASSAY DETAILS: log2 fold change of degron read counts, EGFP-low vs EGFP+ sorted cells (limma voom), compound-induced degradation; higher = more compound-induced degradation of the degron-EGFP fusion; degrons are variants of IKZF1/3 zinc finger 2; compound dose not given here
# MEASUREMENT CONTEXT: Jurkat; 18 h; compound: compound 22 (5-morpholino-thalidomide)
Whole data set: some 8,300 sequences, median “log2 fold change of degron read counts, EGFP-low vs EGFP+ sorted cells (limma voom), compound-induced degradation” near -1.1, cut for the highest 2% near 3.2. The sample as a whole holds a higher share of the highest values than the screen did.
MEASURED QUANTITY: log2 fold change of degron read counts
Hey, just send me the number, nothing else.

- FMCNVCGAQFTQKGNLLRHIKL [46F_47M_49N_50V_52G_53A_54Q_55F_67L_, Q9UKT9]: -1.18
- FMCEICGRNFTQKGNLLRHIKL [46F_47M_49E_50I_52G_53R_54N_55F_67L_, Q9UKT9]: -2.71

Query: For the sequence FLCEVCGAEFTQKGNLLRHIKL [46F_47L_49E_50V_52G_53A_54E_55F_67L_, Q9UKT9] , what log2 fold change of degron read counts is on record?
Reply: -1.2

Query: For the sequence FHCNQCGHYFTQKGNLLRHIKL [46F_47H_49N_50Q_52G_53H_54Y_55F_67L_, Q9UKT9] , what log2 fold change of degron read counts is on record?
Reply: -2.71
